system: SF-539; test: Antiproliferative activity against human SF539 cells assessed as cell growth at 10 uM; assay type: functional; conditions: read-out: Activity
Catalogue of molecules with associated growth at 10 µM
Endpoint: growth at 10 µM (%)

{"Mol": "O=C1c2ccccc2C(=O)c2c1ccc1nc(-c3ccccc3)[nH]c21", "Endpoint": "growth at 10 µM", "Experimental Value": 96.2}
{"Mol": "CCc1nc2ccc3c(c2[nH]1)C(=O)c1ccccc1C3=O", "Endpoint": "growth at 10 µM", "Experimental Value": 83.2}
{"Mol": "COc1cc(-c2nc3ccc4c(c3[nH]2)C(=O)c2ccccc2C4=O)ccc1O", "Endpoint": "growth at 10 µM", "Experimental Value": 102}
{"Mol": "Cc1ccc(-c2nc3ccc4c(c3[nH]2)C(=O)c2ccccc2C4=O)cc1", "Endpoint": "growth at 10 µM", "Experimental Value": 91.7}
